Would you mind telling me the reported Her2 level of each entry?
assay_system: Receptor tyrosine-protein kinase erbB-2 (Homo sapiens) (UniProt P04626)
Sequence (P04626 whole entry, looked up): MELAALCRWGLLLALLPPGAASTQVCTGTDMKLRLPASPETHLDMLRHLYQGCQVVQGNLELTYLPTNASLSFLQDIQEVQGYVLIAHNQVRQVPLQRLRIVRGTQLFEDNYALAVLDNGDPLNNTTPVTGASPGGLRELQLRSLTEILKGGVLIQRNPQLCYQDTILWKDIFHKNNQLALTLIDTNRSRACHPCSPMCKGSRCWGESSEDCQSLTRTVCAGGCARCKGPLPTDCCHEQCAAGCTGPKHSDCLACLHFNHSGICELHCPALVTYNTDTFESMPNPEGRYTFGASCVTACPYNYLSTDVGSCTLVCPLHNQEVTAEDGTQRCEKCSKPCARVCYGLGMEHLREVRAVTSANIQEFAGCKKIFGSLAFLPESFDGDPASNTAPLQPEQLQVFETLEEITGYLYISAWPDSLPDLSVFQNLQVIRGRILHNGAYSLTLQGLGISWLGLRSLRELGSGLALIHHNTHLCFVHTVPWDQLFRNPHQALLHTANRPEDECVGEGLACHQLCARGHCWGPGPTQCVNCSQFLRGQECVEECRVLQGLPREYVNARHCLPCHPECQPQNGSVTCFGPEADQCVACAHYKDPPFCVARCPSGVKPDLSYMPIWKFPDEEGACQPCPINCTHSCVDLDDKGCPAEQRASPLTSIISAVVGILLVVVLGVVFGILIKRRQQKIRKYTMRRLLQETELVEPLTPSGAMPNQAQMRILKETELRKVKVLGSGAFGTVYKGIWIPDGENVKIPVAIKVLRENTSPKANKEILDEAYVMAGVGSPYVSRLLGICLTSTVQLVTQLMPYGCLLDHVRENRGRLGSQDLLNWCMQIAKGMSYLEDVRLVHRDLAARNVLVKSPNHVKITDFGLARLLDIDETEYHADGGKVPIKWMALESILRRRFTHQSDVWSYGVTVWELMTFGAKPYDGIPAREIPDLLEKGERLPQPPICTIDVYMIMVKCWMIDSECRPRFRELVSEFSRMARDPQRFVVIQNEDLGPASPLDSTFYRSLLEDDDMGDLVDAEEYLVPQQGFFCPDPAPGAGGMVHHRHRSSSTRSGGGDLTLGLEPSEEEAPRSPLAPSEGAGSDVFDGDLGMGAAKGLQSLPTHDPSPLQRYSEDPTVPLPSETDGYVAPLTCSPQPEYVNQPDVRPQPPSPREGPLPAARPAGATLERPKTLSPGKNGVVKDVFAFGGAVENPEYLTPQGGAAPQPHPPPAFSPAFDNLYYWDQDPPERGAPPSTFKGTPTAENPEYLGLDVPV
test_name: reducers of endogenous Her2 protein level, primary screen, SKBR3 breast tumor cells, AlphaScreen, ATP viability (AID 461);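 note: lower value means less Her2 protein in the cells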
test_parameters: 18-24 h, at 10 µM, active compounds read low
Activity calls are given as the source filed them.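 Rule for the calls: active = Her2 level under about 52% in both replicate screens, with viability over 70% of control (limit read from the data); inconclusive = Her2 under the limit in one screen only, or viability under 70%; inactive = Her2 level above the set limit.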

Exercise: Any idea what Her2 level was measured for CCC(C)(C)n1nnnc1C(c1ccc(OC)c(OC)c1)N1CCN(c2ccc(F)cc2)CC1 (stereo unspecified) ?
Key: 93.5% (inactive)

Exercise: How about `CN(C)c1ccc(/C(=N\O)c2ccccc2)cc1` ?
Key: 114% (inactive)

Exercise: How about COc1ccc(OC)c(C2=NOC(C(=O)Nc3cccnc3)C2)c1 (stereo unspecified) ?
Key: 82% (inactive)

Exercise: How about `CCOc1ccccc1NC(=O)CCN1CCN(S(=O)(=O)c2ccc(Br)cc2)CC1` ?
Key: 87.5% (inactive)

Exercise: How about `O=C(O)c1cc(=O)cc(C(=O)O)[nH]1` ?
Key: 91.5% (inactive)

Exercise: How about `CCCCc1c(O)nc(SCC(=O)c2ccccc2)[nH]c1=O` ?
Key: 102% (inactive)

Exercise: How about CCc1ccc(N2CC(C(=O)OCC(=O)Nc3cc(C)on3)CC2=O)cc1 (stereo unspecified) ?
Key: 92% (inactive)

Exercise: How about `COc1ccc(C(=O)CSc2nnc(C3CCCCC3)n2N)c(OC)c1` ?
Key: 105% (inactive)

Exercise: How about `Cc1cccc(NC(=O)CC(C)(C)C)c1` ?
Key: 90.5% (inactive)

Exercise: How about CC1Cc2nc(SCC(=O)Nc3ccc(F)cc3F)n(C)c(=O)c2S1 (stereo unspecified) ?
Key: 100% (inactive)

Exercise: How about `Clc1ccccc1OCc1nn2c(-c3ccncc3)nnc2s1` ?
Key: 75.5% (inactive)
